measured.target: OsSMF1 (Oryza sativa, UniProt Q6ZLB0 1-436)
Sequence: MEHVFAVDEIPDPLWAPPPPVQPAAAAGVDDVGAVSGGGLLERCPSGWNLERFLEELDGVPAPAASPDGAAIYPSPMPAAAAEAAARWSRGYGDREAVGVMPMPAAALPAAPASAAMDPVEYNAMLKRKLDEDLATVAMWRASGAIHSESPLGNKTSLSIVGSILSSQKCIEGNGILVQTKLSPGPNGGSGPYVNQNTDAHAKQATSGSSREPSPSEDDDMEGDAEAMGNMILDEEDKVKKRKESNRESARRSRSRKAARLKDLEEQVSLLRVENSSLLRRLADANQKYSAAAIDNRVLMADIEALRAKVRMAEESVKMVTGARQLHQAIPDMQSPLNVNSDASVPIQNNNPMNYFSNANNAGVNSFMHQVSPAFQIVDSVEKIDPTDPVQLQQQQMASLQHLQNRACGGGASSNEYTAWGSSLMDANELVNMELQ
measurement.notes: protein-binding microarray (RPBM); PBS, 2% BSA, 51.3 ng/ul salmon testes DNA, 50 uM zinc acetate, 200 nM TF, 25 C, 1 h; high values mean tight binding
study.conditions: protein: recombinant; tags: N-terminal polyhistidine and DsRed monomer fusion (pET32a); chain copies: 2; label: CyDye5-dUTP incorporated in the synthesized complementary strand; 3' TTTTT single-stranded linker to array surface; dsDNA, one strand shown
In all, about 39,000 sequences were measured (“fluorescence intensity (a.u.)”: median about 4,300, highest 2% from about 39,000 on). What follows is part of a selection rich in the highest values, with near analogues and random picks from the rest.
Give measured binding signal for each item. Keep answers brief.

Problem: What binding signal value was documented for this sequence, GTTGGAGATGCTCTGAGAAACGCATATGTGGATGGTCTTACGGAGTCACCTAGTGCAG ?
Result: 48100 fluorescence intensity (a.u.)

Problem: What binding signal value was documented for this sequence, CTGAAAAGTTGTGTGTGTATGACATGTTGATGTGATGGAACGGAGTCACCTAGTGCAG ?
Result: 5180 fluorescence intensity (a.u.)

Problem: What binding signal value was documented for this sequence, TTTCAACAGATATTTTATTGTGACGTTGCAATTACTAAAACGGAGTCACCTAGTGCAG ?
Result: 4950 fluorescence intensity (a.u.)

Problem: What binding signal value was documented for this sequence, CCAAATAGACTCTTACTTATAAGGGTTGAGTCTAGAGTGACGGAGTCACCTAGTGCAG ?
Result: 6050 fluorescence intensity (a.u.)

Problem: What binding signal value was documented for this sequence, AGATTAAGGAGTCCTCCATCTATATAATCCAATCTATCTCCGGAGTCACCTAGTGCAG ?
Result: 21400 fluorescence intensity (a.u.)

Problem: What binding signal value was documented for this sequence, CCTTCCGTTCGACGCGACACGCGAGTCATTGCTGCCACCACGGAGTCACCTAGTGCAG ?
Result: 3680 fluorescence intensity (a.u.)

Problem: What binding signal value was documented for this sequence, ACAAAGGAGAAGAAGCCATGATGTGGAGTTGGCCGGTGGCCGGAGTCACCTAGTGCAG ?
Result: 3800 fluorescence intensity (a.u.)

====

measured.target: OsSMF1 (Oryza sativa, UniProt Q6ZLB0 1-436)
Sequence: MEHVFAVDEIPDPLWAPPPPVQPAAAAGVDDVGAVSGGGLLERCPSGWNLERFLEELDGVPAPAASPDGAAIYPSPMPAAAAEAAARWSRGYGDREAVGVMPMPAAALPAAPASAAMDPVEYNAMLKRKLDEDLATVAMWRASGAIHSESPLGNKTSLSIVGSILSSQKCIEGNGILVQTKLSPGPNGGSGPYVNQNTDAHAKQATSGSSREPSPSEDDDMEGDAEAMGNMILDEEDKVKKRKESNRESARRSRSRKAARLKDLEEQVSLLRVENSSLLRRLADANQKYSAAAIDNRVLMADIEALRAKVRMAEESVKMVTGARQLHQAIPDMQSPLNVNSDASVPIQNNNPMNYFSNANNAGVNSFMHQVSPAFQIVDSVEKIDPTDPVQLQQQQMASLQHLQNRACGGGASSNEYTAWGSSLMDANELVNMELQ
measurement.notes: protein-binding microarray (RPBM); PBS, 2% BSA, 51.3 ng/ul salmon testes DNA, 50 uM zinc acetate, 200 nM TF, 25 C, 1 h; high values mean tight binding
study.conditions: protein: recombinant; tags: N-terminal polyhistidine and DsRed monomer fusion (pET32a); chain copies: 2; label: CyDye5-dUTP incorporated in the synthesized complementary strand; 3' TTTTT single-stranded linker to array surface; dsDNA, one strand shown
The full ranking holds about 39,000 sequences; the median of “fluorescence intensity (a.u.)” is about 4,300, and the highest 2% start at about 39,000. What follows is part of a selection rich in the highest values, with near analogues and random picks from the rest.
readout.label: binding signal

Problem: What binding signal value was documented for this sequence, GCGAACACTGAGGTGTTGACGTTGCGCTCCGCCTCGCTGTCGGAGTCACCTAGTGCAG ?
Result: 3840 fluorescence intensity (a.u.)

Problem: What binding signal value was documented for this sequence, GGAAGAAGGCCGCCGACGCACAACAGAGGCGGCGGCGGGGCGGAGTCACCTAGTGCAG ?
Result: 3510 fluorescence intensity (a.u.)

Problem: What binding signal value was documented for this sequence, GCTGGCTGGATTGCCACGTGTATGTCACGTAGGATAAAACCGGAGTCACCTAGTGCAG ?
Result: 14300 fluorescence intensity (a.u.)

Problem: What binding signal value was documented for this sequence, TTCTTTTCCCATGGCCTCTGACTATGACATTATTTAAACACGGAGTCACCTAGTGCAG ?
Result: 3440 fluorescence intensity (a.u.)

Problem: What binding signal value was documented for this sequence, AGATGATCTAGGCGTGCGTGCATGCATGCGTGGCCCGCCACGGAGTCACCTAGTGCAG ?
Result: 4340 fluorescence intensity (a.u.)

Problem: What binding signal value was documented for this sequence, GCGTGTGCATCTGCCATGTAATCCAAAATATAGCCATGAACGGAGTCACCTAGTGCAG ?
Result: 3660 fluorescence intensity (a.u.)

Problem: What binding signal value was documented for this sequence, GTTTTCGCTTGTACTTCACAGGCTGATCACGGTCAGTACTCGGAGTCACCTAGTGCAG ?
Result: 48700 fluorescence intensity (a.u.)
